Data credit: patent US11542246B2

A set of compounds tested on IRAK1 (Homo sapiens (Human), UniProt P51617), with measured IC50:

compound	IC50
CC[C@@H]1[C@H](F)C(=O)N[C@@H]1COc1cccc2cc(C(N)=O)c(OC)nc12	100 to 1000 nM
CC[C@@H]1[C@H](F)C(=O)N[C@@H]1COc1nccc2cc(C(N)=O)c(OC)nc12	1000 to 5000 nM
COc1cc2c(OCC3CCC(=O)N3)cccc2nc1C(N)=O (stereo not drawn)	> 5000 nM
COc1nc2c(OC[C@@H]3CCC(=O)N3)cccc2cc1C(N)=O	1000 to 5000 nM
COc1nc2c(OCC3CCC(=O)N3)cccc2cc1C(N)=O (stereo not drawn)	> 5000 nM

Here is the next item to consider.
q: Report IC50 under test system IRAK1 (Homo sapiens (Human), UniProt P51617) for COc1nc2c(OC[C@@H]3CC(F)(F)C(=O)N3)cccc2cc1C(N)=O .
a: 1000 to 5000 nM
